The reported numbers originate from ChEMBL document CHEMBL5137036.

For each entry below, report its Activity value.
molecular target: Histone deacetylase 1 (Homo sapiens); experiment: Inhibition of human HDAC1 assessed as residual activity at 1 uM using RHKKAc fluorogenic peptide as substrate preincubated for 10 mins followed by substrate addition by fluorescence based analysis relative to control
Sequence (Q13547 whole entry): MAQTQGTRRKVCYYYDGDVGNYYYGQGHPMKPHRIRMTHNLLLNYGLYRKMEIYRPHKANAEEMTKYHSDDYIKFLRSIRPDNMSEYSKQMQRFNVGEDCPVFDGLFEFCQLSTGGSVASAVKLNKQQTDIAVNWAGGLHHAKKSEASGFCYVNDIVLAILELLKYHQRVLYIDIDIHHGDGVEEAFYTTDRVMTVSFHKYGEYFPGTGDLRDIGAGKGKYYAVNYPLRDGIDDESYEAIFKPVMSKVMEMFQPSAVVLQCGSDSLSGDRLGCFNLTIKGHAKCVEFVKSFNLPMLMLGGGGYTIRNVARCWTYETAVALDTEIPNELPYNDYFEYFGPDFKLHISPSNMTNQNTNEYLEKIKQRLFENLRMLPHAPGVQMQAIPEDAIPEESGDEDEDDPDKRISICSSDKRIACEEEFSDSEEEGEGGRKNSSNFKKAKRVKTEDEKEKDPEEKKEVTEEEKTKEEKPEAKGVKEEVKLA
Unit % implied. Number only.

Task: Recorded Activity for Nc1ccccc1NC(=O)c1ccc(CN2C(=O)C3=C(CCN(Cc4ccc5ccccc5c4)C3)N3CCN=C23)cc1 , please?
Result: 58.1

Task: Next compound up: Nc1ccccc1NC(=O)c1ccc(CN2CCC3=C(C2)C(=O)N(Cc2cccc(F)c2)C2=NCCN23)cc1
Result: 49.1

Task: Another compound: Nc1cc(F)ccc1NC(=O)c1ccc(CN2C(=O)C3=C(CCN(Cc4ccccc4)C3)N3CCN=C23)cc1
Result: 78.3

Task: Same read-out for Cc1ccccc1CN1CCC2=C(C1)C(=O)N(Cc1ccc(C(=O)Nc3ccc(F)cc3N)cc1)C1=NCCN12 ?
Result: 68

Task: Another compound to check: Nc1ccccc1NC(=O)c1ccc(CN2C(=O)C3=C(CCN(Cc4ccc(Cl)c(C(F)(F)F)c4)C3)N3CCN=C23)cc1
Result: 52.2

Task: Next: Nc1ccccc1NC(=O)c1ccc(CN2CCC3=C(C2)C(=O)N(Cc2cccnc2)C2=NCCN23)cc1
Result: 46.4

Task: // query: COc1ccc(CN2CCC3=C(C2)C(=O)N(Cc2ccc(C(=O)Nc4ccccc4N)cc2)C2=NCCN23)cc1
Result: 44.4

Task: And for Nc1ccccc1NC(=O)c1ccc(CN2C(=O)C3=C(CCN(Cc4nc5ccccc5[nH]4)C3)N3CCN=C23)cc1 ?
Result: 58.3

Task: Also check CC(c1ccccc1)N1C(=O)C2=C(CCN(Cc3ccc(C(=O)Nc4ccccc4N)cc3)C2)N2CCN=C21 (stereo not given)
Result: 46.3

Task: Now try CNC1=C(CCCc2ccccc2)C(=O)N(Cc2ccc(C(=O)Nc3ccccc3N)cc2)C2=NCCN21 .
Result: 63.8

* * *

Target: UniProt:Q9BY41
Sequence (Q9BY41 whole entry): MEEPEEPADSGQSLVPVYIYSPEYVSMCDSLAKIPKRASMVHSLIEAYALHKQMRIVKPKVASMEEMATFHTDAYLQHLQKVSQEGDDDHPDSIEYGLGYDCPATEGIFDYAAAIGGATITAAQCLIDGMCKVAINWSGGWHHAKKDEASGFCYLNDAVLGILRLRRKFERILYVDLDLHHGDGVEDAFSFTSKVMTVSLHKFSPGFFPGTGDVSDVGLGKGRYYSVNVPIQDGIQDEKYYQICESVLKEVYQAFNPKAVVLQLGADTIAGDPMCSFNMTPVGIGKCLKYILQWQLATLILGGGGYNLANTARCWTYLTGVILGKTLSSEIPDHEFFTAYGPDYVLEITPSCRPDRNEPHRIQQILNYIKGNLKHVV
Experimental Endpoint: IC50

Task: Requested read-out IC50, target or system UniProt:Q9BY41, entry COc1ccccc1CN1C(=O)C2=C(CCN(Cc3ccc(C(=O)Nc4ccccc4N)cc3)C2)N2CCN=C12
Result: > 10 µM

* * *

molecular target: Histone deacetylase 4 (Homo sapiens, UniProt P56524)
Sequence (P56524 whole entry): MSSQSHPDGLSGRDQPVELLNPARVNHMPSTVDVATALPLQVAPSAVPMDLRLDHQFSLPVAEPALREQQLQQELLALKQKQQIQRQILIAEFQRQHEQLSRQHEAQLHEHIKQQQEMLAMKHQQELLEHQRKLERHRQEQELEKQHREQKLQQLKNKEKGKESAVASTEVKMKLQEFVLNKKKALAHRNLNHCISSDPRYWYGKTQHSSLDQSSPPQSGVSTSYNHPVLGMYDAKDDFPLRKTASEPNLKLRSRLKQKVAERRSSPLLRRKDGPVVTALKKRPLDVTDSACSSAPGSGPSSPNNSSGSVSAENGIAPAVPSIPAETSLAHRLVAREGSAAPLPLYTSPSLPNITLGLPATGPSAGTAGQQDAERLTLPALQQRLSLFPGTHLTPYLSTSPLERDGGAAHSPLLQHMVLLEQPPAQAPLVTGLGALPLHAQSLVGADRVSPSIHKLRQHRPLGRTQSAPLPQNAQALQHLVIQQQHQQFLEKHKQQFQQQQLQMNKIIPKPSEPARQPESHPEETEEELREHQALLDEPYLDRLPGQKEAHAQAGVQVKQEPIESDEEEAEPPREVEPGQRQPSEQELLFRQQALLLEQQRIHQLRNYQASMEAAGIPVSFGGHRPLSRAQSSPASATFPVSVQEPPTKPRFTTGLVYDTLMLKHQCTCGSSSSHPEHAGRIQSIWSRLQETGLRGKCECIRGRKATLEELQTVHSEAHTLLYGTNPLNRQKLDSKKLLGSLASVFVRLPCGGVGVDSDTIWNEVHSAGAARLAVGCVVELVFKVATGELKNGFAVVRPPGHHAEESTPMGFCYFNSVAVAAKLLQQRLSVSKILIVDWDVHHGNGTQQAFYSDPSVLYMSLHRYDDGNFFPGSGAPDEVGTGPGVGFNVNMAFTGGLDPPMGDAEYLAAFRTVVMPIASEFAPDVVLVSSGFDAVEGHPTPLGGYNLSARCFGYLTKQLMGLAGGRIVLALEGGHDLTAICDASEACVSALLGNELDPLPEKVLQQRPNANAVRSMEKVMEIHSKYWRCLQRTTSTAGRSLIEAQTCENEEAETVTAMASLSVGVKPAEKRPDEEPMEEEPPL
Experimental Endpoint: IC50

Task: Can you look up the measured IC50 of COc1ccccc1CN1C(=O)C2=C(CCN(Cc3ccc(C(=O)Nc4ccccc4N)cc3)C2)N2CCN=C12 for me?
Result: > 10 µM
